These entries and their values trace back to ChEMBL document CHEMBL1142997.

molecular target: Hydroxycarboxylic acid receptor 3 (Homo sapiens); test: Activity at GPR109b in CHO cells assessed as inhibition of forskolin-induced cAMP generation; format: functional, cell-based
Sequence (P49019 whole entry): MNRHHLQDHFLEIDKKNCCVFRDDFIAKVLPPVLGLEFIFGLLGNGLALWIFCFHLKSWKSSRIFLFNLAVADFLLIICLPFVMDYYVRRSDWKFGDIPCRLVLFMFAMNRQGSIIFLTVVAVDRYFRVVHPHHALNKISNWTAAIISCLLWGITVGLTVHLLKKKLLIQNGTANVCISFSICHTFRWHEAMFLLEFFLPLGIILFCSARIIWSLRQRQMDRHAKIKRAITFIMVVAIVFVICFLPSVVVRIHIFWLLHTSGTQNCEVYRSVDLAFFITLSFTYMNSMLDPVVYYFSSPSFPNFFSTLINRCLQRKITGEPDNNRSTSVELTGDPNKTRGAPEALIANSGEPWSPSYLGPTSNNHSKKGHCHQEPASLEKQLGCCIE

>  <MOLECULE>
CC1(c2ccc(F)c(F)c2)OC(C(=O)O)=CC1=O (centres undefined)

>  <EC50>
19 µM (agonist)

$$$$
>  <MOLECULE>
CC1(C2=CCCC2)OC(C(=O)O)=CC1=O (centres undefined)

>  <EC50>
5.1 µM (agonist)

$$$$
>  <MOLECULE>
CCC1(c2ccccc2)OC(C(=O)O)=CC1=O (centres undefined)

>  <EC50>
4.8 µM (agonist)

$$$$
>  <MOLECULE>
Cc1csc(C2(C)OC(C(=O)O)=CC2=O)c1 (centres undefined)

>  <EC50>
1.8 µM (agonist)

$$$$
>  <MOLECULE>
CC1(c2c(F)cccc2F)OC(C(=O)O)=CC1=O (centres undefined)

>  <EC50>
36 µM (agonist)

$$$$
>  <MOLECULE>
CC1(c2cccc(I)c2)OC(C(=O)O)=CC1=O (centres undefined)

>  <EC50>
5.1 µM (agonist)

$$$$
>  <MOLECULE>
CC1(c2csc(Cl)c2)OC(C(=O)O)=CC1=O (stereo in doubt; (-)-5ah)

>  <EC50>
16 µM (agonist)

$$$$
>  <MOLECULE>
CC1(c2ccccc2)OC(C(=O)O)=CC1=O (stereo in doubt; (+)-5a) [ACIFRAN]

>  <EC50>
3 µM (agonist)

$$$$
>  <MOLECULE>
Cc1sc(C2(C)OC(C(=O)O)=CC2=O)cc1Br (centres undefined)

>  <EC50>
10.4 µM (agonist)

$$$$
>  <MOLECULE>
Cc1cc(C2(C)OC(C(=O)O)=CC2=O)cs1 (stereo in doubt; 5aj)

>  <EC50>
0.18 µM (agonist)

$$$$
>  <MOLECULE>
CC1(c2cccc(Br)c2)OC(C(=O)O)=CC1=O (single isomer, unassigned; (+))

>  <EC50>
14 µM (agonist)

$$$$
>  <MOLECULE>
CC1(c2csc(Br)c2)OC(C(=O)O)=CC1=O (stereo in doubt; (+)-5ai)

>  <EC50>
0.37 µM (agonist)

$$$$
>  <MOLECULE>
Cc1cc(C2(C)OC(C(=O)O)=CC2=O)cs1 (single isomer, unassigned; (+))

>  <EC50>
0.18 µM (agonist)

$$$$
>  <MOLECULE>
CC1(c2ccc(F)cc2F)OC(C(=O)O)=CC1=O (centres undefined)

>  <EC50>
24 µM (agonist)

$$$$
>  <MOLECULE>
CCc1cccc(C2(C)OC(C(=O)O)=CC2=O)c1 (centres undefined)

>  <EC50>
6.2 µM (agonist)

$$$$
>  <MOLECULE>
CC1(c2csc(Br)c2)OC(C(=O)O)=CC1=O (stereo in doubt; 5ai)

>  <EC50>
1.5 µM (agonist)

$$$$
>  <MOLECULE>
CC1(c2ccc(F)cc2)OC(C(=O)O)=CC1=O (centres undefined)

>  <EC50>
9.9 µM (agonist)

$$$$
>  <MOLECULE>
CC1(c2ccc(Cl)s2)OC(C(=O)O)=CC1=O (centres undefined)

>  <EC50>
3.7 µM (agonist)

$$$$
>  <MOLECULE>
Cc1cc(C2(C)OC(C(=O)O)=CC2=O)cs1 (stereo in doubt; (-)-5aj)

>  <EC50>
5 µM (agonist)

$$$$
>  <MOLECULE>
CC1(c2cccc(Cl)c2)OC(C(=O)O)=CC1=O (centres undefined)

>  <EC50>
22 µM (agonist)

$$$$
>  <MOLECULE>
CC1(c2ccsc2)OC(C(=O)O)=CC1=O (centres undefined)

>  <EC50>
4.2 µM (agonist)

$$$$
>  <MOLECULE>
CC1(c2csc(Cl)c2)OC(C(=O)O)=CC1=O (stereo in doubt; 5ah)

>  <EC50>
1.7 µM (agonist)

$$$$
>  <MOLECULE>
CC1(c2cccc(C(F)(F)F)c2)OC(C(=O)O)=CC1=O (centres undefined)

>  <EC50>
12.6 µM (agonist)

$$$$
>  <MOLECULE>
Cc1ccc(C2(C)OC(C(=O)O)=CC2=O)s1 (centres undefined)

>  <EC50>
0.27 µM (agonist)

$$$$
>  <MOLECULE>
CC1(c2cccc(Br)c2)OC(C(=O)O)=CC1=O (stereo in doubt; 5u)

>  <EC50>
4.9 µM (agonist)

$$$$
>  <MOLECULE>
CC1(c2cc(F)cc(F)c2)OC(C(=O)O)=CC1=O (centres undefined)

>  <EC50>
33 µM (agonist)

$$$$
>  <MOLECULE>
CC1(c2csc(Cl)c2)OC(C(=O)O)=CC1=O (single isomer, unassigned; (+))

>  <EC50>
0.69 µM (agonist)

$$$$
>  <MOLECULE>
CC1(c2cc(Br)cs2)OC(C(=O)O)=CC1=O (centres undefined)

>  <EC50>
4.1 µM (agonist)

$$$$
>  <MOLECULE>
CC1(c2ccccc2)OC(C(=O)O)=CC1=O (stereo in doubt; 5a) [ACIFRAN]

>  <EC50>
4.2 µM (agonist)

$$$$
